# measured-on: PDGFRA (human)
# assay-details: radiometric filter-binding kinase assay, Kinase HotSpot
# protocol-conditions: compound 0.5 µM; ATP 10 µM
measured-metric: residual activity (%)
Output spec: scalar in %, unitless text.

Reference set (3 entries):
smi: N#C/C(=C\c1ccc(O)c(O)c1)C(=O)NCc1ccccc1
unit-abbreviation: %
residual activity: 110
--
smi: Ic1cccc(CSc2nnc(-c3ccncc3)o2)c1
unit-abbreviation: %
residual activity: 90.1
--
smi: O=C1C(Cl)=C(N2C(=O)CCC2=O)C(=O)c2ccccc21
unit-abbreviation: %
residual activity: 109

Data point: "COc1cc2ncnc(Nc3ccc(OCc4ccccc4)cc3)c2cc1OC" ; residual activity = 91.3

The recorded residual activity for "COc1cc2ncnc(Nc3ccc(Oc4ccccc4)cc3)c2cc1OC" is 88.8

// recorded residual activity for "O=C1c2ccccc2-c2nc3nnnn3nc21" : 44.1

Source of measurements: the kinase profiling compilation of Christmann-Franck et al. (2016)
